target: IRAK1 (Homo sapiens, UniProt P51617); construct: His-TEV-IRAK1 (194-712); His (N); TEV cleavage site (N); test: IRAK1 enzymatic assay (ADP-Glo luminescence); details: purified human recombinant His-TEV-IRAK1 (194-712)
Sequence (P51617 194-712): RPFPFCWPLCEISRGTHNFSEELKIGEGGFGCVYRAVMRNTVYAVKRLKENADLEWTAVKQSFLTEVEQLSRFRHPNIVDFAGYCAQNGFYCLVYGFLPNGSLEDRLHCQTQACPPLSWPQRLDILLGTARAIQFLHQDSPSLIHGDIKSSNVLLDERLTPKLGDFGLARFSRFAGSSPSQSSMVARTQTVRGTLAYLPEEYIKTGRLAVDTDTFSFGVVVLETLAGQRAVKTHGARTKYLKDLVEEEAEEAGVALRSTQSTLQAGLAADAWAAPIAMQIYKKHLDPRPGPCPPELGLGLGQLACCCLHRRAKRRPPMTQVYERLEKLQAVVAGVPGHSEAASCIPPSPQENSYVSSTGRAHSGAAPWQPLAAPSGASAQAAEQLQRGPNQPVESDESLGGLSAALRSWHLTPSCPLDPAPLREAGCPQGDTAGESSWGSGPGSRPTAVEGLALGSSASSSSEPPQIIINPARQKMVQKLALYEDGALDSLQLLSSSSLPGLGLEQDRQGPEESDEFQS
pIC50: −log10 of the molar value.
readout: pIC50

Which measured pIC50 value corresponds to "Cc1cc2c(cc1N1CCOCC1=O)[nH]/c(=N\C(=O)c1cccc(C(F)F)c1)n2CCCO" ?
≥ 7.00

// query: "O=C(/N=c1\[nH]c2cc(N3CCN(C4CC4)CC3=O)ccc2n1CCCO)c1cccc(C(F)(F)F)c1"
≥ 7.00

Then this compound: "O=C(/N=c1\[nH]c2cc(N3C(=O)CN4CCC3CC4)ccc2n1CCCO)c1cccc(C(F)F)c1"
6.00 to 7.00

What about this compound? "N#Cc1cccc(C(=O)/N=c2\[nH]c3cc(N4CCOCC4=O)ccc3n2[C@H]2CC[C@H](O)CC2)c1"
≥ 7.00

---

target: IRAK1 (Homo sapiens); construct: His-TEV-IRAK1 (194-712); His (N); TEV cleavage site (N); assay: IRAK1 enzymatic assay (ADP-Glo luminescence); conditions: purified human recombinant His-TEV-IRAK1 (194-712)
readout: IC50

>>> result("COc1cc2c(cc1N1CCOCC1=O)[nH]/c(=N\\C(=O)c1cccc(C#N)c1)n2CCCO")
"≤ 100 nM"
>>> result("O=C(/N=c1\\[nH]c2cc(N3CCCOCC3=O)ccc2n1CCCO)c1cccc(C(F)(F)F)c1")
"≤ 100 nM"
>>> result("N#Cc1cc2c(cc1N1CCOCC1=O)[nH]/c(=N\\C(=O)c1cccc(C(F)(F)F)c1)n2CCCO")
"> 1000 nM"

Next compound, please.
Requested field: IC50. Item: "O=C(/N=c1\[nH]c2cc(N3CCOCC3=O)ccc2n1CCCO)c1cccc(C(F)(F)F)c1F"
100 to 1000 nM

---

Quick reference for IC50 among some compounds
Target: IRAK1 (Homo sapiens)
Construct: His-TEV-IRAK1 (194-712); His (N); TEV cleavage site (N)
Assay: IRAK1 enzymatic assay (ADP-Glo luminescence)
Conditions: purified human recombinant His-TEV-IRAK1 (194-712)
Procedure: IRAK1 is a human purified recombinant enzyme (His-TEV-IRAK1 (194-712)) In this assay, IRAK1 hydrolyses ATP and autophosphorylates. Measurement of IRAK-1 inhibition is performed in 384-well format based on luminescence assay (ADP-Glo™ Kinase Assay from Promega). […] After 20 minutes of incubation at RT, the luminescence signal is measured with a luminometer (PerkinElmer Envision or equivalent reader).

Solved cases (4 shown):
>>> result("N#Cc1cccc(C(=O)/N=c2\\[nH]c3cc(N4CCOCC4=O)ccc3n2CCCCO)c1")
"100 to 1000 nM"
>>> result("O=C(/N=c1\\[nH]c2cc(N3CCCOC3=O)ccc2n1C1CC(F)(F)C1)c1cccc(C(F)(F)F)c1")
"100 to 1000 nM"
>>> result("Cn1ncn(-c2ccc3c(c2)[nH]/c(=N\\C(=O)c2cccc(C(F)(F)F)c2)n3CCCO)c1=O")
"≤ 100 nM"
>>> result("CN1CCC(n2/c(=N/C(=O)c3cccc(C(F)F)c3)[nH]c3cc(N4CCOCC4=O)ccc32)CC1")
"100 to 1000 nM"

Could you tell me which IC50 is on file for "O=C1C[C@H](n2/c(=N/C(=O)c3cccc(C(F)(F)F)c3)[nH]c3cc(N4CCCOC4=O)ccc32)CN1" ?
> 1000 nM

---

target: IRAK1 (Homo sapiens); construct: His-TEV-IRAK1 (194-712); His (N); TEV cleavage site (N); assay: IRAK1 enzymatic assay (ADP-Glo luminescence); conditions: purified human recombinant His-TEV-IRAK1 (194-712)
readout: IC50

>>> result("O=C(/N=c1\\[nH]c2cc(N3CCOCC3=O)c(F)cc2n1CCCO)c1cccc(C(F)F)c1")
"100 to 1000 nM"

Look up IC50: "O=C(/N=c1\[nH]c2cc(N3CCCOC3=O)ccc2n1CCC(F)(F)F)c1cccc(C(F)(F)F)c1"
100 to 1000 nM

Field entry: "O=C(/N=c1\[nH]c2cc(N3CCCOC3=O)ccc2n1CC1(F)CCOCC1)c1cccc(C(F)(F)F)c1"
100 to 1000 nM

What about O=C(/N=c1\[nH]c2cc(N3CCOCC3=O)ccc2n1[C@H]1CCCC[C@@H]1CO)c1cccc(C(F)F)c1 (racemic) ?
100 to 1000 nM

Another compound: "O=C(/N=c1\[nH]c2cc(N3CCOCC3=O)ccc2n1C1(CCO)CCCCC1)c1cccc(C(F)(F)F)c1"
> 1000 nM

Then "O=C(/N=c1\[nH]c2cc(N3CCOCC3=O)ccc2n1C1(CO)CCCCC1)c1cccc(C(F)(F)F)c1" ?
> 1000 nM

Another: "CC(C)(C)OC(=O)N1CCC(n2/c(=N/C(=O)c3cccc(C(F)F)c3)[nH]c3cc(N4CCOCC4=O)ccc32)CC1"
100 to 1000 nM

---

molecular target: IRAK1 (Homo sapiens, UniProt P51617); construct: His-TEV-IRAK1 (194-712); His (N); TEV cleavage site (N); test: IRAK1 enzymatic assay (ADP-Glo luminescence); conditions: purified human recombinant His-TEV-IRAK1 (194-712)
pIC50: −log10 of the molar value.
readout: pIC50

Known results for molecules:
>>> result("O=C(/N=c1\\[nH]c2cc(N3CCCOC3=O)ccc2n1C1CCC1)c1cccc(C(F)(F)F)c1")
"< 6.00"
>>> result("Cn1ccc(-c2cccc(C(=O)/N=c3\\[nH]c4cc(N5CCOCC5=O)ccc4n3CCCO)c2)cc1=O")
"≥ 7.00"
>>> result("O=C(/N=c1\\[nH]c2cc(N3CC4CCC(C3=O)N4C3CC3)ccc2n1CCCO)c1cccc(C(F)(F)F)c1 (stereo not shown)")
"< 6.00"
>>> result("O=C(/N=c1\\[nH]c2cc(N3CCOCC3=O)ccc2n1CCCO)c1cnccn1")
"< 6.00"
>>> result("CC(F)(F)Cn1/c(=N/C(=O)c2cccc(C(F)(F)F)c2)[nH]c2cc(N3CCCOC3=O)ccc21")
"6.00 to 7.00"
>>> result("O=C(/N=c1\\[nH]c2cc(N3CCCOC3=O)ccc2n1CC1CCCOC1)c1cccc(C(F)(F)F)c1 (stereo not shown)")
"6.00 to 7.00"

Given the entry "O=C(/N=c1\[nH]c2cc(N3CCNCC3=O)ccc2n1CCCO)c1cccc(C(F)F)c1" , report its measured pIC50.
6.00 to 7.00

---

target: IRAK1 (Homo sapiens, UniProt P51617); construct: His-TEV-IRAK1 (194-712); His (N); TEV cleavage site (N); test: IRAK1 enzymatic assay (ADP-Glo luminescence); details: purified human recombinant His-TEV-IRAK1 (194-712)
readout: IC50

Answered examples (8):
>>> result("O=C(/N=c1\\[nH]c2cc(N3CCOCC3=O)ccc2n1[C@H]1CCCC[C@H]1CO)c1cccc(C(F)(F)F)c1 (racemic)")
"> 1000 nM"
>>> result("O=C(/N=c1\\[nH]c2cc(N3CCOCC3=O)ccc2n1CCCO)c1ccc2scnc2c1")
"> 1000 nM"
>>> result("CC1(C)CCOC(=O)N1c1ccc2c(c1)[nH]/c(=N\\C(=O)c1cccc(C(F)(F)F)c1)n2CCCO")
"≤ 100 nM"
>>> result("CS(=O)(=O)c1cccc(C(=O)/N=c2\\[nH]c3cc(N4CCOCC4=O)ccc3n2CCCCO)c1")
"100 to 1000 nM"
>>> result("CC1(C)C(=O)N(c2ccc3c(c2)[nH]/c(=N\\C(=O)c2cccc(C(F)F)c2)n3CCCO)CCN1C1CC1")
"≤ 100 nM"
>>> result("C[S+]([O-])CCn1/c(=N/C(=O)c2cccc(C(F)F)c2)[nH]c2cc(N3CCOCC3=O)ccc21 (centres unmarked)")
"100 to 1000 nM"
>>> result("O=C(/N=c1\\[nH]c2cc(N3CCOCC3=O)c(Cl)cc2n1CCCO)c1cccc(C(F)(F)F)c1")
"> 1000 nM"
>>> result("O=C(/N=c1\\[nH]c2cc(N3CCCOC3=O)ccc2n1CC1COC1)c1cccc(C(F)F)c1")
"100 to 1000 nM"

Write down the reported IC50 of "O=C(/N=c1\[nH]c2cc(N3CCOCC3=O)ccc2n1CCCO)c1ccccc1" , test system: IRAK1 (Homo sapiens, UniProt P51617).
100 to 1000 nM

---

molecular target: IRAK1 (Homo sapiens, UniProt P51617); construct: His-TEV-IRAK1 (194-712); His (N); TEV cleavage site (N); test: IRAK1 enzymatic assay (ADP-Glo luminescence); conditions: purified human recombinant His-TEV-IRAK1 (194-712)
pIC50: −log10 of the molar value.
readout: pIC50

>>> result("Cc1cc2c(cc1N1CCOCC1=O)[nH]/c(=N\\C(=O)c1cccc(C#N)c1)n2CCCO [Compound 68]")
"6.00 to 7.00"
>>> result("COc1cc2c(cc1N1CCOCC1=O)[nH]/c(=N\\C(=O)c1cccc(C#N)c1)n2CC1(CO)CC1 [Compound 51]")
"6.00 to 7.00"

# pIC50 lookup, item O=C(/N=c1\[nH]c2cc(N3C(=O)CN(C4CC4)CC34CC4)ccc2n1CCCO)c1cccc(C(F)F)c1 [Example 198]
≥ 7.00

These data points were gathered from patent US10059701B2.
